Source of measurements: patent US20250084041A1

biological target: Rabbit Reticulocyte Lysate; test: Rabbit Reticulocyte Lysate: inhibition of eukaryotic protein synthesis (luciferase); settings: 30° C. 90 minutes, read-out: Retic. IC50
Structures can show the parent of a compound that is named as a salt.
EXPERIMENTAL_READOUT: IC50

Task: Find IC50 for CC(C)(N)C(=O)N1CCN(C(=O)Nc2ccn(C3=CCC(CN4C[C@@H]5[C@@H](N)[C@@H]5C4)CC3)c(=O)n2)CC1 (single isomer, unassigned) [Compound 33, hydrochloride salt] on Rabbit Reticulocyte Lysate and write it down.
Result: ≥ 1 µM

Task: Find IC50 for CC(C)(N)C(=O)N1CCN(C(=O)Nc2ccn(C3CCC(CN4C[C@@H]5[C@@H](N)[C@@H]5C4)CC3)c(=O)n2)CC1 (stereo partly drawn) [Compound 5, hydrochloride salt] on Rabbit Reticulocyte Lysate and write it down.
Result: ≥ 1 µM

Task: Find IC50 for CC(C)(N)C(=O)N1CCN(C(=O)Nc2ccn([C@H]3CC[C@H](CN[C@H]4CC[C@H](N)CC4)CC3)c(=O)n2)CC1 [Compound 18, hydrochloride salt] on Rabbit Reticulocyte Lysate and write it down.
Result: ≥ 1 µM

---

test system: A. baumannii (Ab); test: Broth microdilution MIC, A. baumannii; format: cell-based; conditions: Acinetobacter baumannii, A. baumannii; CAMHB supplemented with sodium bicarbonate 25 mM; read-out: Ab + bicarb 25 (MIC)
Counter-ions that a name gives are not always drawn.
EXPERIMENTAL_READOUT: MIC

Task: Please look at this molecule and report its MIC: CC(C)(N)C(=O)N1CCN(C(=O)Nc2ccn(C3=CCC(CN4C[C@@H]5[C@@H](CN)[C@@H]5C4)CC3)c(=O)n2)CC1 (stereo partly drawn) [Compound 2, hydrochloride salt]
Result: > 32 µg/mL

Task: Please look at this molecule and report its MIC: CC(C)(N)C(=O)N1CCN(C(=O)Nc2ccn(C3=CCC(CN4CCC5(CC4)CC(N)C5)CC3)c(=O)n2)CC1 (single isomer, unassigned) [Compound 36]
Result: 8 to 32 µg/mL

Task: Please look at this molecule and report its MIC: CC(C)(N)C(=O)N1CCN(C(=O)Nc2ccn(C3CCC(CN4C[C@@H]5[C@@H](CN)[C@@H]5C4)CC3)c(=O)n2)CC1 (stereo partly drawn) [Compound 8, hydrochloride salt]
Result: > 32 µg/mL

Task: Please look at this molecule and report its MIC: CC(C)(N)C(=O)N1CCN(C(=O)Nc2ccn(C3=CCC(CN4C[C@@H]5[C@@H](N)[C@@H]5C4)CC3)c(=O)n2)CC1 (single isomer, unassigned) [Compound 33, hydrochloride salt]
Result: 8 to 32 µg/mL

Task: Please look at this molecule and report its MIC: CC(C)(N)C(=O)N1CCN(C(=O)Nc2ccn(C3=CCC(CN4C[C@@H]5[C@@H](N)[C@@H]5C4)CC3)c(=O)n2)CC1 (stereo partly drawn) [Compound 12, hydrochloride salt]
Result: 8 to 32 µg/mL

Task: Please look at this molecule and report its MIC: CCN(C[C@H]1CC[C@H](n2ccc(N)nc2=O)CC1)[C@H]1CC[C@H](N)CC1 [Compound 54]
Result: > 32 µg/mL

---

test system: S. aureus (Sa); test: Broth microdilution MIC, S. aureus; type: cell-based; details: Staphylococcus aureus, read-out: Sa + bicarb 25 (MIC)
Where a name gives a salt, the structure may show the parent alone.
EXPERIMENTAL_READOUT: MIC

Task: Please look at this molecule and report its MIC: CC(C)(N)C(=O)N1CCN(C(=O)Nc2ccn(C3CCC(CN4CCCC(N)CC4)CC3)c(=O)n2)CC1 (stereo not drawn) [Compound 9, hydrochloride salt]
Result: < 8 µg/mL

Task: Please look at this molecule and report its MIC: CC(C)(N)C(=O)N1CCN(C(=O)Nc2ccn([C@H]3CC[C@H](CN(CCF)[C@H]4CC[C@H](N)CC4)CC3)c(=O)n2)CC1 [Compound 49, hydrochloride salt]
Result: < 8 µg/mL

Task: Please look at this molecule and report its MIC: CC1(N)CCN(CC2CC=C(n3ccc(NC(=O)N4CCN(C(=O)C(C)(C)N)CC4)nc3=O)CC2)CC1 (stereo not drawn) [Compound 27, hydrochloride salt]
Result: < 8 µg/mL

---

For each record, write down the corresponding IC50.
target: Rabbit Reticulocyte Lysate; test: Rabbit Reticulocyte Lysate: inhibition of eukaryotic protein synthesis (luciferase); details: 30° C. 90 minutes, read-out: Retic. IC50
Where a name gives a salt, the structure may show the parent alone.

Task: Find IC50 for CC(C)(N)C(=O)N1CCN(C(=O)Nc2ccn(C3CCC(CN(CCF)C4CCC(N)CC4)CC3)c(=O)n2)CC1 (stereo in doubt) [Compound 48, hydrochloride salt] on Rabbit Reticulocyte Lysate and write it down.
Result: ≥ 1000 nM

Task: Find IC50 for CC(C)(N)C(=O)N1CCN(C(=O)Nc2ccn(C3=CCC(CN4CCC5(CC4)CC(N)C5)CC3)c(=O)n2)CC1 (stereo not drawn) [Compound 25, hydrochloride salt] on Rabbit Reticulocyte Lysate and write it down.
Result: ≥ 1000 nM

Task: Find IC50 for CC(C)(N)C(=O)N1CCN(C(=O)Nc2ccn(C3=CCC(CN4C[C@@H]5[C@@H](CN)[C@@H]5C4)CC3)c(=O)n2)CC1 (stereo partly drawn) [Compound 2, hydrochloride salt] on Rabbit Reticulocyte Lysate and write it down.
Result: ≥ 1000 nM

---

system: S. aureus (Sa); test: Broth microdilution MIC, S. aureus; format: cell-based; settings: Staphylococcus aureus, read-out: Sa + bicarb 25 (MIC)
Structures can show the parent of a compound that is named as a salt.
For each record, write down the corresponding MIC.

Task: Please look at this compound and report its MIC: CC(C)(N)C(=O)N1CCN(C(=O)Nc2ccn([C@H]3CC[C@H](CN[C@H]4CC[C@@H](N)CC4)CC3)c(=O)n2)CC1 [Compound 17, hydrochloride salt]
Result: < 8 µg/mL

Task: Please look at this compound and report its MIC: CN(CC1CC=C(n2ccc(NC(=O)N3CCN(C(=O)C(C)(C)N)CC3)nc2=O)CC1)[C@H]1CC[C@H](N)CC1 (single isomer, unassigned) [Compound 32, hydrochloride salt]
Result: < 8 µg/mL

Task: Please look at this compound and report its MIC: CC(C)(N)C(=O)N1CCN(C(=O)Nc2ccn(C3=CCC(CN4CCC5(CC4)CC(N)C5)CC3)c(=O)n2)CC1 (centres unmarked) [Compound 25, hydrochloride salt]
Result: < 8 µg/mL

Task: Please look at this compound and report its MIC: CC(C)(N)C(=O)N1CCN(C(=O)Nc2ccn(C3=CCC(CN4CCC(CCN)CC4)CC3)c(=O)n2)CC1 (centres unmarked) [Compound 26, hydrochloride salt]
Result: < 8 µg/mL

Task: Please look at this compound and report its MIC: CC(C)(N)C(=O)N1CCN(C(=O)Nc2ccn(C3CCC(CN(CCF)C4CCC(N)CC4)CC3)c(=O)n2)CC1 (stereo in doubt) [Compound 48, hydrochloride salt]
Result: 8 to 32 µg/mL

Task: Please look at this compound and report its MIC: CC(C)(N)C(=O)N1CCN(C(=O)Nc2ccn([C@H]3CC[C@H](CN4CC(N)C4)CC3)c(=O)n2)CC1 [Compound 52, hydrochloride salt]
Result: 8 to 32 µg/mL

Task: Please look at this compound and report its MIC: CC(C)(N)C(=O)N1CCN(C(=O)Nc2ccn(C3=CCC(CN4CC[C@H](CN)C4)CC3)c(=O)n2)CC1 (stereo in doubt) [Compound 23, hydrochloride salt]
Result: < 8 µg/mL

Task: Please look at this compound and report its MIC: CC(C)(N)C(=O)N1CCN(C(=O)Nc2ccn(C3CCC(CN4CCC5(N)CC5C4)CC3)c(=O)n2)CC1 (centres unmarked) [Compound 45, hydrochloride salt]
Result: < 8 µg/mL

Task: Please look at this compound and report its MIC: CN(CC1CC=C(n2ccc(NC(=O)N3CCN(C(=O)C(C)(C)N)CC3)nc2=O)CC1)[C@H]1CC[C@H](N)CC1 (some centres unmarked) [Compound 30, hydrochloride salt]
Result: < 8 µg/mL

Task: Please look at this compound and report its MIC: CC(C)(N)C(=O)N1CCN(C(=O)Nc2ccn(C3CCC(CN4CC(CN)C4)CC3)c(=O)n2)CC1 (centres unmarked) [Compound 14, hydrochloride salt]
Result: < 8 µg/mL

Task: Please look at this compound and report its MIC: CC(C)(N)C(=O)N1CCN(C(=O)Nc2ccn(C3=CCC(CN4C[C@@H]5[C@H](N)[C@@H]5C4)CC3)c(=O)n2)CC1 (some centres unmarked) [Compound 22, hydrochloride salt]
Result: < 8 µg/mL
